Hi, quick share: literature Ki data for Cytochrome P450 2C9 (Homo sapiens, UniProt P11712), several sources combined.
Classify: t when Ki is strictly less than 40 µM; f when Ki is not.

Example cases with answers are listed next.
# chemical.smiles, assayed.target, category.label
measured = [
    ("CCc1oc2ccccc2c(=O)c1C(=O)c1ccc(OC)cc1", "Cytochrome P450 2C9 (Homo sapiens, UniProt P11712)", "t"),
    ("COc1ccc2nc(S(=O)(=O)Cc3ncc(C)c(OC)c3C)[nH]c2c1", "Cytochrome P450 2C9 (Homo sapiens, UniProt P11712)", "t"),
    ("Cc1oc2ccccc2c(=O)c1C(=O)c1cc(I)c(O)c(I)c1", "Cytochrome P450 2C9 (Homo sapiens, UniProt P11712)", "t"),
    ("O=c1c(O)c(-c2ccc(O)cc2)oc2cc(O)cc(O)c12", "Cytochrome P450 2C9 (Homo sapiens, UniProt P11712)", "t"),
    ("[O-][S@+](Cc1cc(OCC2CC2)ccn1)c1nc2cc(F)ccc2[nH]1", "Cytochrome P450 2C9 (Homo sapiens, UniProt P11712)", "f"),
    ("CC(C)OC(=O)N1CCC(Oc2ncnc3c2cnn3-c2ccc(S(C)(=O)=O)cc2F)CC1", "Cytochrome P450 2C9 (Homo sapiens, UniProt P11712)", "t"),
    ("CC(=O)SCc1ccc(-c2cccnc2)o1", "Cytochrome P450 2C9 (Homo sapiens, UniProt P11712)", "t"),
    ("CNCc1ccc(-c2cccnc2)o1", "Cytochrome P450 2C9 (Homo sapiens, UniProt P11712)", "t"),
]

### Prompt Take the compound COc1ccnc(C[S@@+]([O-])c2nc3cc(OC(F)F)ccc3[nH]2)c1OC and say whether its Ki is less than 40 µM.
### Response f

### Prompt Take the compound COC(=O)c1ccc2[nH]c([S@@+]([O-])Cc3nccc(OC)c3OC)nc2c1 and say whether its Ki is less than 40 µM.
### Response f

### Prompt Take the compound [O-][S@@+](Cc1cc(OCC2CC2)ccn1)c1nc2ccc(F)cc2[nH]1 and say whether its Ki is less than 40 µM.
### Response f

### Prompt Take the compound NCc1cc(-c2cccnc2)n[nH]1 and say whether its Ki is less than 40 µM.
### Response t

### Prompt Take the compound COc1cc(C(=O)NS(=O)(=O)c2ccccc2C)ccc1Cc1cn(C)c2ccc(NC(=O)OC3CCCC3)cc12 and say whether its Ki is less than 40 µM.
### Response t

### Prompt Take the compound Cc1cscc1-c1ccccc1 and say whether its Ki is less than 40 µM.
### Response f

### Prompt Take the compound NCc1ccc(-c2ccccc2)s1 and say whether its Ki is less than 40 µM.
### Response t

### Prompt Take the compound Cc1ccsc1-c1ccc(F)nc1 and say whether its Ki is less than 40 µM.
### Response f

### Prompt Take the compound CCCc1oc2ccccc2c(=O)c1C(=O)c1ccc(O)cc1 and say whether its Ki is less than 40 µM.
### Response t

### Prompt Take the compound CCc1oc2ccccc2c(=O)c1C(=O)c1cc(Br)c(O)c(Br)c1 and say whether its Ki is less than 40 µM.
### Response t

### Prompt Take the compound CCCc1oc2ccccc2c(=O)c1C(=O)c1cc(I)c(OC)c(I)c1 and say whether its Ki is less than 40 µM.
### Response t
